- PROTOCOL_DETAILS: small-molecule microarray binders of probe aDKK1, primary screen, biochemical, biotinylated probe, 635/667 nm fluorescence (AID 1099);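 note: score merges 667nm spot fluorescence with signal to noise across triplicate slides; reference of the scale not given here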
- REPORTED_CONDITIONS: higher = more signal
Item-by-item account of composite z-score

COMPOUND: CCOC(=O)C1=CCC(c2ccc([N+](=O)[O-])cc2)N(S(=O)(=O)c2ccc(C)cc2)C1 (centres undefined)
composite z-score: 0.616

COMPOUND: C[N+](C)(C)CCCCCCNC(=O)[C@H]1C[C@H]2C(=O)N3CCC[C@H]3C(=O)N2[C@H]1c1ccc(O)cc1
composite z-score: -0.258

COMPOUND: O=C1O[C@@H](c2ccccc2)[C@@H](c2ccccc2)N2[C@@H](c3ccc(OCCO)cc3)[C@]3(C(=O)Nc4ccc(C#CC5=CCCCC5)cc43)[C@@H](C(=O)O)[C@H]12
composite z-score: 0.82

COMPOUND: CC(C)c1ccc(NN2C(C(O)c3cccc(O)c3)C=CC3C(=O)N(c4ccccc4)C(=O)C32)cc1 (centres undefined)
composite z-score: 0.808
